# assay-method-text: Ratio of drug level in brain to plasma in C57BL/6J mouse at 20 mg/kg, po measured at 4 hrs
# Format: ADME, organism-based
# experimental-context: read-out: BPR
Returns: string. Value is YES if measured Kp at 4 h is below 0.04, and NO if it is greater than or equal to it.

INSERT INTO measurements (compound_structure_string, assigned_class) VALUES
  ('C[C@@H](NC(=O)c1nn(-c2ccc(Cl)cc2)c2c1CN(C(=O)CNS(C)(=O)=O)C/C2=C\c1ccc(F)cc1)c1ccccn1', 'NO'),
  ('C[C@@H](NC(=O)c1nn(-c2ccc(Cl)cc2Cl)c2c1CN(C(=O)CCC(N)=O)C/C2=C\c1ccc(F)cc1)c1ccccn1', 'YES'),
  ('C[C@@H](NC(=O)c1nn(-c2ccc(Cl)c(Cl)c2)c2c1CN(C(=O)Cn1cnnn1)C/C2=C\c1ccc(F)cc1)c1ccccn1', 'NO'),
  ('C[C@@H](NC(=O)c1nn(-c2ccc(Cl)cc2Cl)c2c1CN(C(=O)[C@@H](O)CO)C/C2=C\c1ccc(Cl)cc1)c1ccccc1', 'NO'),
  ('C[C@@H](NC(=O)c1nn(-c2ccc(Cl)cc2Cl)c2c1CN(C(=O)CNS(C)(=O)=O)C/C2=C\c1ccc(Cl)cc1)c1ccccn1', 'NO'),
  ('C[C@@H](NC(=O)c1nn(-c2ccc(Cl)cc2Cl)c2c1CN(C(=O)Cn1cnnn1)C/C2=C\c1ccc(F)cc1)c1ccccn1', 'YES');

Say whether its Kp at 4 h is strictly beneath 0.04. Entry: C[C@@H](NC(=O)c1nn(-c2ccc(Cl)c(Cl)c2)c2c1CN(C(=O)Cn1cncn1)C/C2=C\c1ccc(Cl)cc1)c1ccccn1 NO

Identify whether the compound C[C@@H](NC(=O)c1nn(-c2ccc(Cl)cc2Cl)c2c1CN(C(=O)[C@@H](O)CO)C/C2=C\c1ccc(Cl)cc1)c1ccccn1 records Kp at 4 h below 0.04. NO

// data source = ChEMBL document CHEMBL3862001
